Origin of measurements: patent US9206432B2

test system: lacZ under control of the tetA promoter (PtetA) in E. coli KM3; format: cell-based; conditions: Table 4; rimsulfuron 20 ppm; 48 hrs at 30° C.
Measurement kind: relative β-galactosidase activity, inducer Rs
One number for each entry.

Molecule	Observed measurement
L1-2: SU-responsive TetR(B) ligand binding domain variant, library L1 hit, SEQ ID NO: 3 (protein, Sulfonylurea responsive repressor L1-02) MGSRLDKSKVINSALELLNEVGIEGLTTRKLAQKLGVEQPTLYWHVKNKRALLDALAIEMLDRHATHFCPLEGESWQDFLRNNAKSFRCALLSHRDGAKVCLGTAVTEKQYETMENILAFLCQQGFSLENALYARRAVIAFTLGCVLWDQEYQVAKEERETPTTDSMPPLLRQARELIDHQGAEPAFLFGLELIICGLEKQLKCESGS	1.3
L1-9: SU-responsive TetR(B) variant, library L1 hit (protein, Sulfonylurea responsive repressor L1-09) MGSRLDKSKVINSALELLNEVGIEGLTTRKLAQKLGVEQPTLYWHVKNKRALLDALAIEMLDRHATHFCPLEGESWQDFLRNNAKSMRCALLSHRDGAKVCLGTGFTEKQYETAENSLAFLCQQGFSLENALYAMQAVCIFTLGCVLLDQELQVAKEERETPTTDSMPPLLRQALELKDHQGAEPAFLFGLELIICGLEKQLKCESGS	0.4
L1-28: SU-responsive TetR(B) variant, library L1 hit (protein, Sulfonylurea responsive repressor L1-28) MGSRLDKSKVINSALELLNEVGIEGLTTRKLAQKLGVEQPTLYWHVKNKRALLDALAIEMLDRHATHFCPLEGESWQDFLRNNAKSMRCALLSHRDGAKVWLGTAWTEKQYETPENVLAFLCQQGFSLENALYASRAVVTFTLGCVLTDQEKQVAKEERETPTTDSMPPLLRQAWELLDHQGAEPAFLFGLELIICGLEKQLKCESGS	0.2

Next:
[ask] Dear colleague, I am looking for the recorded relative β-galactosidase activity, inducer Rs of the following molecule: L1-7: SU-responsive TetR(B) variant, library L1 hit, SEQ ID NO: 4 (protein, Sulfonylurea responsive repressor L1-07) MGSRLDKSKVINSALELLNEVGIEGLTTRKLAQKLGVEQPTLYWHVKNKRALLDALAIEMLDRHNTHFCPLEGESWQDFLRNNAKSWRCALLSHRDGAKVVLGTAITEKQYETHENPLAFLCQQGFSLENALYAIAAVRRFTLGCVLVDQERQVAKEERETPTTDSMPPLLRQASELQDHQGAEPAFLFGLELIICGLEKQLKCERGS
[reply] 0.2
